Test: Three-treatment crossover pharmacokinetics of IN nalmefene, three dosing regimens (Example 13)
Settings: human, plasma, other: intranasal (IN spray), 3 mg, […], Min, T1 (3 mg IN, one spray in one nostril); time 18.0
recorded_endpoint: concentration at 18 h

I am curious: what concentration at 18 h value has been reported for C=C1CC[C@@]2(O)[C@H]3Cc4ccc(O)c5c4[C@@]2(CCN3CC2CC2)[C@H]1O5 ?
0.37 ng/mL

---

Test: Phase 1 pharmacokinetic evaluation of nalmefene IN with and without Intravail vs IM injection
Conditions: human, in vivo, 1.5 mg
recorded_endpoint: concentration at 60 h (µg/mL)
Provide only the numeric value, understood in µg/mL.

Reported concentration at 60 h, compound C=C1CC[C@@]2(O)[C@H]3Cc4ccc(O)c5c4[C@@]2(CCN3CC2CC2)[C@H]1O5 : ____
0

---

Test: Three-treatment crossover pharmacokinetics of IN nalmefene, three dosing regimens (Example 13)
Conditions: human, plasma, other: intranasal (IN spray), 3 mg, Cmax, mean, Treatment A (T1) 3 mg in one nostril
recorded_endpoint: Cmax (ng/mL)
I only need the number, in ng/mL, no unit after it.

I would be grateful if you could share the reported Cmax for C=C1CC[C@@]2(O)[C@H]3Cc4ccc(O)c5c4[C@@]2(CCN3CC2CC2)[C@H]1O5 .
10.8

---

Test: Three-treatment crossover pharmacokinetics of IN nalmefene, three dosing regimens (Example 13)
Conditions: human, plasma, other: intranasal (IN spray), 3 mg, AUC0-15 min, mean, Treatment A (T1) 3 mg in one nostril
recorded_endpoint: AUC(0-t) (ng·h/mL)
Numbers only here, please. The scale is ng·h/mL.

Find the recorded AUC(0-t) belonging to C=C1CC[C@@]2(O)[C@H]3Cc4ccc(O)c5c4[C@@]2(CCN3CC2CC2)[C@H]1O5 and report it.
1.18

---

Experiment: Three-treatment crossover pharmacokinetics of IN nalmefene, three dosing regimens (Example 13)
Conditions: human, plasma, other: intranasal (IN spray), 6 mg, […], Median; Time 0.750; T3: 6 mg nalmefene HCl IN, two 0.1 mL sprays in one nostril
recorded_endpoint: concentration at […] (ng/mL)
A number alone suffices; assume ng/mL.

// lookup concentration at […] for C=C1CC[C@@]2(O)[C@H]3Cc4ccc(O)c5c4[C@@]2(CCN3CC2CC2)[C@H]1O5
9.69

---

Test: Three-treatment crossover pharmacokinetics of IN nalmefene, three dosing regimens (Example 13)
Conditions: human, plasma, other: intranasal (IN spray), 6 mg, […], Median; Time 1.00; T3: 6 mg nalmefene HCl IN, two 0.1 mL sprays in one nostril
recorded_endpoint: concentration at 1 h (ng/mL)
Just the number in ng/mL, nothing appended.

Any idea what concentration at 1 h was measured for C=C1CC[C@@]2(O)[C@H]3Cc4ccc(O)c5c4[C@@]2(CCN3CC2CC2)[C@H]1O5 ?
8.88

---

Experiment: Two-period crossover pharmacokinetics of nalmefene 3 mg IN vs 1.0 mg IM (Example 12)
Details: human, plasma, intramuscular, 1 mg, Mean plasma concentration, Treatment B 1.0 mg IM; 3.00 h
recorded_endpoint: concentration at 3 h (ng/mL)
Write the number in ng/mL without appending the unit.

Need concentration at 3 h of C=C1CC[C@@]2(O)[C@H]3Cc4ccc(O)c5c4[C@@]2(CCN3CC2CC2)[C@H]1O5 [Nalmefene] , thanks.
0.896

---

Assay: Three-treatment crossover pharmacokinetics of IN nalmefene, three dosing regimens (Example 13)
Details: human, plasma, other: intranasal (IN spray), 3 mg, […], Max, T1 (3 mg IN, one spray in one nostril); time 6.00
recorded_endpoint: concentration at 6 h

GET /values?readout=concentration at 6 h&item= C=C1CC[C@@]2(O)[C@H]3Cc4ccc(O)c5c4[C@@]2(CCN3CC2CC2)[C@H]1O5
3.01 ng/mL

---

Test: Three-treatment crossover pharmacokinetics of IN nalmefene, three dosing regimens (Example 13)
Conditions: human, plasma, other: intranasal (IN spray), 3 mg, AUClast, mean, Treatment A (T1) 3 mg in one nostril
recorded_endpoint: AUC(0-t) (ng·h/mL)
The figure you give is taken to be in ng·h/mL; do not add the unit.

I have this compound here, C=C1CC[C@@]2(O)[C@H]3Cc4ccc(O)c5c4[C@@]2(CCN3CC2CC2)[C@H]1O5 , and I need its recorded AUC(0-t).
44.9

---

Experiment: Three-treatment crossover pharmacokinetics of IN nalmefene, three dosing regimens (Example 13)
Conditions: human, plasma, other: intranasal (IN spray), 3 mg, […], Max, T1 (3 mg IN, one spray in one nostril); time 18.0
recorded_endpoint: concentration at 18 h
Reply with the number and its unit after it.

Given C=C1CC[C@@]2(O)[C@H]3Cc4ccc(O)c5c4[C@@]2(CCN3CC2CC2)[C@H]1O5 [Nalmefene] , state its recorded concentration at 18 h.
0.851 ng/mL

---

Experiment: Three-treatment crossover pharmacokinetics of IN nalmefene, three dosing regimens (Example 13)
Conditions: human, plasma, other: intranasal (IN spray), 3 mg, […], Min, T1 (3 mg IN, one spray in one nostril); time 48.0
recorded_endpoint: concentration at 48 h
Express your answer as a number followed by its unit.

Consider the molecule C=C1CC[C@@]2(O)[C@H]3Cc4ccc(O)c5c4[C@@]2(CCN3CC2CC2)[C@H]1O5 and give its measured concentration at 48 h.
0 ng/mL

---

Assay: Two-period crossover pharmacokinetics of nalmefene 3 mg IN vs 1.0 mg IM (Example 12)
Conditions: human, plasma, other: intranasal, 3 mg, Median plasma concentration, Treatment A 3.0 mg IN; 36.0 h
recorded_endpoint: concentration at 36 h (ng/mL)
Reply numerically in ng/mL, unit not repeated.

If you can, please state the reported concentration at 36 h value of C=C1CC[C@@]2(O)[C@H]3Cc4ccc(O)c5c4[C@@]2(CCN3CC2CC2)[C@H]1O5 .
0.165

---

Assay: Two-period crossover pharmacokinetics of nalmefene 3 mg IN vs 1.0 mg IM (Example 12)
Conditions: human, plasma, im, 1 mg, Cmax, GeoMean, Treatment B 1.0 mg IM (Ref)
recorded_endpoint: Cmax (ng/mL)
Write it as a number; the unit ng/mL goes unstated.

What does the data say about its Cmax? Entry: C=C1CC[C@@]2(O)[C@H]3Cc4ccc(O)c5c4[C@@]2(CCN3CC2CC2)[C@H]1O5
1.5

---

Assay: Phase 1 pharmacokinetic evaluation of nalmefene IN with and without Intravail vs IM injection
Conditions: human, in vivo, 3 mg
recorded_endpoint: concentration at 0.08 h (ng/mL)
# value in ng/mL; strip the unit string

For C=C1CC[C@@]2(O)[C@H]3Cc4ccc(O)c5c4[C@@]2(CCN3CC2CC2)[C@H]1O5 [Nalmefene] , what is its reported concentration at 0.08 h?
0

---

Assay: Phase 1 pharmacokinetic evaluation of nalmefene IN with and without Intravail vs IM injection
Details: human, in vivo, 3 mg
recorded_endpoint: concentration at 72 h (ng/mL)
Dear colleague, please return just the value in ng/mL, with no unit written.

Fill blank: measured concentration at 72 h of the compound C=C1CC[C@@]2(O)[C@H]3Cc4ccc(O)c5c4[C@@]2(CCN3CC2CC2)[C@H]1O5 is ____.
0

---

Assay: Three-treatment crossover pharmacokinetics of IN nalmefene, three dosing regimens (Example 13)
Conditions: human, plasma, other: intranasal (IN spray), 6 mg, Cmax, mean, Treatment B (T2) 3 mg in each nostril (6 mg)
recorded_endpoint: Cmax
Show the value, then the unit it is measured in.

Suppose we examine the molecule C=C1CC[C@@]2(O)[C@H]3Cc4ccc(O)c5c4[C@@]2(CCN3CC2CC2)[C@H]1O5 [Nalmefene] ; what Cmax value has been reported?
22.2 ng/mL

---

Experiment: Three-treatment crossover pharmacokinetics of IN nalmefene, three dosing regimens (Example 13)
Conditions: human, plasma, other: intranasal (IN spray), 6 mg, […], Median; Time 18.0; T3: 6 mg nalmefene HCl IN, two 0.1 mL sprays in one nostril
recorded_endpoint: concentration at 18 h (ng/mL)
Give just the number in ng/mL; leave the unit off.

I would be grateful if you could share the reported concentration at 18 h for C=C1CC[C@@]2(O)[C@H]3Cc4ccc(O)c5c4[C@@]2(CCN3CC2CC2)[C@H]1O5 .
1.12

---

Assay: Three-treatment crossover pharmacokinetics of IN nalmefene, three dosing regimens (Example 13)
Settings: human, plasma, other: intranasal (IN) spray, 3 mg, […], Mean, T1 (3 mg IN, one spray in one nostril); time 6.00
recorded_endpoint: concentration at 6 h
Number plus unit, in that order.

Report concentration at 6 h for C=C1CC[C@@]2(O)[C@H]3Cc4ccc(O)c5c4[C@@]2(CCN3CC2CC2)[C@H]1O5 [Nalmefene] please.
2.06 ng/mL

---

Assay: Two-period crossover pharmacokinetics of nalmefene 3 mg IN vs 1.0 mg IM (Example 12)
Conditions: human, plasma, intramuscular, 1 mg, Median plasma concentration, Treatment B 1.0 mg IM; 36.0 h
recorded_endpoint: concentration at 36 h (ng/mL)
Numbers only; they are read as ng/mL.

Quick check: concentration at 36 h of C=C1CC[C@@]2(O)[C@H]3Cc4ccc(O)c5c4[C@@]2(CCN3CC2CC2)[C@H]1O5 ?
0.0915
